# Tested on: DeltatarO mutant
# assay_name: S. aureus survival, RN4220 and DeltatarO strains – OD600, teichoic acid synthesis inhibitors, primary screen (AID 463173)
# condition_set: S. aureus RN4220 wild type/DeltatarO growth, OD600, 18 h, stronger effect = lower value, screened at 18.75 µg/mL (by protocol)
The whole screen tested about 52,000 compounds, of which about 4,300 (8.3%) were called active. The sample as a whole holds a higher share of actives than the screen did.
attribute_measured: survival (%)
Report the value in % with no unit label.

Which value of survival has been reported for CC(C)c1nc2ccc(C(=O)NCCCN3CCN(c4ccccc4)CC3)cc2o1 in the records?
120

Quick one: survival for CC1CCN(S(=O)(=O)c2cc(C(=O)NCc3ccc(N(C)C)cc3)n(C)c2)CC1 ?
93

Look up survival for this compound: CCOc1ccc(NC(=O)CSc2ncn[nH]2)cc1
67

Item O=C(NC1CCCCC1)/C(=N\O)c1ccccn1 has what recorded survival?
97

Requested read-out: survival. Entry: O=C(Cn1nc2c(cc1=O)CCCC2)Nc1ccc(F)cc1F
118

What measured survival goes with Cc1ccc(S(=O)(=O)c2cn(C)c3cc(N4CCCC4)c(F)cc3c2=O)c(C)c1 ?
67

Ref: PubChem BioAssay AID463173
